The values you see were collected from paper PMC4339548.

Procedure Text: Urinary excretion of oral sugar probes
Type: in vivo, human
Cond: 0-24 hour; percent excretion divided by creatinine clearance; mean ± SE
Observation Type: Percent urinary excretion of oral sugar probe corrected for CrCl
Give bare numbers.

[
  {
    "Compound": "OC[C@H]1O[C@@H](O[C@@H]2[C@@H](CO)O[C@](O)(CO)[C@H]2O)[C@H](O)[C@@H](O)[C@H]1O [Lactulose]",
    "Value Reported": 0.04
  },
  {
    "Compound": "OC[C@H]1O[C@@](CO)(O[C@H]2O[C@H](CO)[C@@H](O)[C@H](O)[C@H]2O)[C@@H](O)[C@@H]1O [Sucrose, α-D-glucopyranosyl-β-D-fructofuranoside]",
    "Value Reported": 0.0223
  },
  {
    "Compound": "OC[C@@H](O)[C@@H](O)[C@H](O)[C@H](O)CO [Mannitol, D-mannitol]",
    "Value Reported": 0.34
  }
]

Please look at the following compound next.
Input OC[C@H]1O[C@H](O[C@]2(CCl)O[C@H](CCl)[C@@H](O)[C@@H]2O)[C@H](O)[C@@H](O)[C@H]1Cl [Sucralose] . Output Percent urinary excretion of oral sugar probe corrected for CrCl: 0.015

====

Procedure Text: Urinary excretion of oral sugar probes
Assay type: in vivo, human
Cond: 5-12 hour; normalized for CrCl
Consider the following compounds; for each one, report its % Total (of 24 h urinary excretion) corrected for CrCl.
For clarity, give the value followed by its unit.

// worked examples, % Total (of 24 h urinary excretion) corrected for CrCl included
[
  {
    "Compound": "OC[C@H]1O[C@@](CO)(O[C@H]2O[C@H](CO)[C@@H](O)[C@H](O)[C@H]2O)[C@@H](O)[C@@H]1O [Sucrose, α-D-glucopyranosyl-β-D-fructofuranoside]",
    "Value Reported": "26.9%"
  },
  {
    "Compound": "OC[C@H]1O[C@H](O[C@]2(CCl)O[C@H](CCl)[C@@H](O)[C@@H]2O)[C@H](O)[C@@H](O)[C@H]1Cl",
    "Value Reported": "38%"
  },
  {
    "Compound": "OC[C@H]1O[C@@H](O[C@@H]2[C@@H](CO)O[C@](O)(CO)[C@H]2O)[C@H](O)[C@@H](O)[C@H]1O",
    "Value Reported": "32.4%"
  }
]

% Total (of 24 h urinary excretion) corrected for CrCl for "OC[C@@H](O)[C@@H](O)[C@H](O)[C@H](O)CO" is 22.6%

====

Procedure Text: Urinary excretion of oral sugar probes
Assay type: in vivo, human
Cond: 0-24 hour; normalized for CrCl
Observation Type: % Total (of 24 h urinary excretion) corrected for CrCl (%)
One number for each entry, in %.

[
  {
    "Compound": "OC[C@H]1O[C@@H](O[C@@H]2[C@@H](CO)O[C@](O)(CO)[C@H]2O)[C@H](O)[C@@H](O)[C@H]1O [Lactulose]",
    "Value Reported": 100
  }
]

# map each compound to its % Total (of 24 h urinary excretion) corrected for CrCl
1. OC[C@H]1O[C@H](O[C@]2(CCl)O[C@H](CCl)[C@@H](O)[C@@H]2O)[C@H](O)[C@@H](O)[C@H]1Cl [Sucralose]
2. OC[C@H]1O[C@@](CO)(O[C@H]2O[C@H](CO)[C@@H](O)[C@H](O)[C@H]2O)[C@@H](O)[C@@H]1O [Sucrose, α-D-glucopyranosyl-β-D-fructofuranoside]
3. OC[C@@H](O)[C@@H](O)[C@H](O)[C@H](O)CO [Mannitol, D-mannitol]

99.5
94.6
99
